Could you please report measured IC50 for the items listed next?
Molecular target: JAK3 (Homo sapiens)
Construct: purchased Carna 08-046
Sequence (P52333 795-1124 limits assumed): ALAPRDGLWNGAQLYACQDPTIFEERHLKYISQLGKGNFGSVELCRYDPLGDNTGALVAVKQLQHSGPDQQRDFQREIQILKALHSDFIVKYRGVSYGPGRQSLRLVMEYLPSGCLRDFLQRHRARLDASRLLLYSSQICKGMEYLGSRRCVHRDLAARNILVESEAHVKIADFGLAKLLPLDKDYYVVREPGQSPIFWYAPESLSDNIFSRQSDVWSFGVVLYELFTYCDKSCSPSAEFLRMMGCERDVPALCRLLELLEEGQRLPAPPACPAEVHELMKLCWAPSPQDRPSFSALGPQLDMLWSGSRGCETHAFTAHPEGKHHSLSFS
Test: JAK3 kinase inhibition, ADP-Glo luminescence assay
Type: biochemical
Conditions: substrate Poly (4:1 Glu, Tyr)
Field: numeric (nM). Do not append units.

Bench note: what IC50 did `CCc1cc(O)c(F)cc1-c1ccc2c(-c3nc(CNC(=O)c4cnn(C)c4)c[nH]3)n[nH]c2c1` show?
0.5

Bench note: what IC50 did `CCc1cc(O)c(F)cc1-c1ccc2c(-c3nc(CNCC4CC4)c[nH]3)n[nH]c2c1` show?
2.9

Bench note: what IC50 did `CCc1cc(O)c(F)cc1-c1ccc2c(-c3nc(CNS(=O)(=O)C(C)C)c[nH]3)n[nH]c2c1` show?
2.5

Bench note: what IC50 did `CCc1cc(O)c(F)cc1-c1ccc2c(-c3nc(CNC(=O)N4CCOCC4)c[nH]3)n[nH]c2c1` show?
0.48

# credit: patent US20220388992A1
